System: HL-60(TB) leukemia
Assay: NCI-60 one-dose screen, 48 h
Settings: 10 µM unless noted
Compounds without any hit were thinned out: in the full panel of roughly 83,000, 20% have a hit. The source made the active and inactive calls. Rule for the calls: active = growth percent below 10; inactive = the rest.
Your reply should match one of these outcome classes. Y = active, N = inactive

These solved cases illustrate the format of a correct answer.
CC(=O)Oc1ccc(/C=C/C(=O)N[C@@H](Cc2ccccc2)C(O)C(=O)NCc2ccccc2)cc1OC(C)=O (stereo partly drawn)
N
CC(C)c1sc(NC(=O)c2cc(NC(=O)c3cc(NC(=O)c4nccn4C)cn3C)cn2C)nc1C(=O)NCCCN(C)C
N

Continue with the compound presented below.
Task item: In this assay, the call recorded for O=C(Nc1ccc(Cl)c(C(F)(F)F)c1)c1cncc(C#Cc2cnc3ccc(N4CCOCC4)nn23)c1 was what?
Reply: Y
